experiment: in vivo; conditions: female, athymic NMRI-Foxn1^nu/Foxn1^nu, mouse, iv, 10 MBq, total radioactivity, liver uptake
Where a SMILES comes first, the peptide text is derived from it. [ ]: non-standard residue; d: D form. The star is where a group is joined. DOTA = O=C(O)CN1CCN(CC(=O)O)CCN(CC(=O)*)CCN(CC(=O)O)CC1; Hyp = O=C(O)[C@@H]1C[C@@H](O)CN1; Tic = O=C(O)[C@@H]1Cc2ccccc2CN1; Cha = N[C@@H](CC1CCCCC1)C(=O)O; Cit = NC(=O)NCCC[C@H](N)C(=O)O; Octanoyl = CCCCCCCC(=O)*; Ahx = NCCCCCC(=O)O
Reported endpoint: tissue uptake at 1 h (%ID/g)
Answers are plain numbers, in %ID/g.

Compound	tissue uptake at 1 h [%ID/g]
CSCC[C@H](NC(=O)CNC(=O)[C@@H]1CCCN1C(=O)[C@H](CC1CCCCC1)NC(=O)[C@H](Cc1ccc(O)cc1)NC(=O)CCCCCNC(=O)CN1CCN(CC(=O)O)CCN(CC(=O)O)CCN(CC(=O)O)CC1)C(=O)N[C@@H](Cc1ccc(O)cc1)C(=O)N[C@@H](C)C(=O)N[C@@H](Cc1ccccc1)C(=O)N[C@H](Cc1ccccc1)C(=O)O [[^68Ga]Ga-DOTA-AHX-CG36, metal not drawn] ({DOTA-Ahx}-Y[Cha]PGMYAF[dF]-OH)	6.4

# batch: return tissue uptake at 1 h for each of the 2 compounds below
1. CCCCCCCC(=O)NCCCC[C@H](NC(=O)CN1CCN(CC(=O)O)CCN(CC(=O)O)CCN(CC(=O)O)CC1)C(=O)N[C@@H](Cc1ccc(O)cc1)C(=O)N[C@@H](CC1CCCCC1)C(=O)N1C[C@H](O)C[C@H]1C(=O)NCC(=O)N[C@@H](CCCNC(N)=O)C(=O)N[C@@H](Cc1ccccc1)C(=O)N[C@H](C)C(=O)N1Cc2ccccc2C[C@H]1C(=O)N[C@@H](CO)C(=O)O [[^68Ga]Ga-DOTA-KCap-CG34, metal not drawn] ({DOTA}-K(Octanoyl)Y[Cha][Hyp]G[Cit]F[dA][Tic]S-OH)
2. C[C@@H](NC(=O)[C@H](Cc1ccccc1)NC(=O)[C@H](CCCNC(N)=O)NC(=O)CNC(=O)[C@@H]1C[C@@H](O)CN1C(=O)[C@H](CC1CCCCC1)NC(=O)[C@H](Cc1ccc(O)cc1)NC(=O)CCCCCNC(=O)CN1CCN(CC(=O)O)CCN(CC(=O)O)CCN(CC(=O)O)CC1)C(=O)N1Cc2ccccc2C[C@H]1C(=O)N[C@@H](CO)C(=O)O [[^68Ga]Ga-DOTA-AHX-CG34, metal not drawn] ({DOTA-Ahx}-Y[Cha][Hyp]G[Cit]F[dA][Tic]S-OH)

a:
[2.2, 2.4]

* * *

assay: in vivo; conditions: female, athymic NMRI-Foxn1^nu/Foxn1^nu, mouse, iv, 10 MBq, total radioactivity, liver uptake
*1 amine or outer side, *2 acyl side, *3 side chain or, on linkers, in order; H or OH if unused. Where a SMILES comes first, the peptide text is derived from it. [ ]: non-standard residue; d: D form. The star is where a group is joined. DOTA = O=C(O)CN1CCN(CC(=O)O)CCN(CC(=O)*)CCN(CC(=O)O)CC1; NH(CH2)9CO = O=C(CCCCCCCCCN[*:1])[*:2]; Hyp = O=C(O)[C@@H]1C[C@@H](O)CN1; Tic = O=C(O)[C@@H]1Cc2ccccc2CN1; Cha = N[C@@H](CC1CCCCC1)C(=O)O; Cit = NC(=O)NCCC[C@H](N)C(=O)O
Reported endpoint: tissue uptake at 1 h (%ID/g)
Give bare numbers, in %ID/g.

q: Fill in tissue uptake at 1 h for record C[C@@H](NC(=O)[C@H](Cc1ccccc1)NC(=O)[C@H](CCCNC(N)=O)NC(=O)CNC(=O)[C@@H]1C[C@@H](O)CN1C(=O)[C@H](CC1CCCCC1)NC(=O)[C@H](Cc1ccc(O)cc1)NC(=O)CCCCCCCCCNC(=O)CN1CCN(CC(=O)O)CCN(CC(=O)O)CCN(CC(=O)O)CC1)C(=O)N1Cc2ccccc2C[C@H]1C(=O)N[C@@H](CO)C(=O)O [[^68Ga]Ga-DOTA-ADX-CG34, metal not drawn] ({DOTA}-[NH(CH2)9CO]Y[Cha][Hyp]G[Cit]F[dA][Tic]S-OH)
a: 14.2
